# System: Human recombinant FAP (Homo sapiens (Human), UniProt Q12884)
# Sequence (Q12884 26-760): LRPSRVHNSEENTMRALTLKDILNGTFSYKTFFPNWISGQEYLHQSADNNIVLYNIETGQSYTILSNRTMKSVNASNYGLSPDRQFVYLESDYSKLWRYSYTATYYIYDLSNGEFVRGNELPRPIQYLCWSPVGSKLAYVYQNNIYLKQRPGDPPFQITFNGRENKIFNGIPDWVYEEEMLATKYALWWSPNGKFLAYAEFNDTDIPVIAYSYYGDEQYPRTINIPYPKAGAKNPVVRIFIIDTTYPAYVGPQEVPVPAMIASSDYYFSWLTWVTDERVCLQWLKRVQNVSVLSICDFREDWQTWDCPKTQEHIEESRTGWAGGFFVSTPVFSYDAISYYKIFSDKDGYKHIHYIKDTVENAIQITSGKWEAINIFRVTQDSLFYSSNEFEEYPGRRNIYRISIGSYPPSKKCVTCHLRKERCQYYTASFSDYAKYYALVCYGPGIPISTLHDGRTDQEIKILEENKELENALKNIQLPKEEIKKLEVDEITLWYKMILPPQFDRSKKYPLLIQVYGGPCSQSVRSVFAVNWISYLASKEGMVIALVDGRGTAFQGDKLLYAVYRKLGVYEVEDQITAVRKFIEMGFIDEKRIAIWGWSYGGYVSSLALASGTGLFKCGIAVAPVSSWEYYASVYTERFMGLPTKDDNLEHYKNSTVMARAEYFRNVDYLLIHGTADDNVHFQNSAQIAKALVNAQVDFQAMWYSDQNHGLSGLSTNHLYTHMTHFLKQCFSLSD
# Procedure text: FAP protease activity assay (human), FRET-based
# Assay type: biochemical
# Test context: recombinant human FAP, FRET protease activity
Recorded metric: pIC50 (Activity)

Given smiles | Endpoint value
CC(C)(C)OC(=O)N1CCN(CCCOc2ccc3nccc(C(=O)NCC(=O)N4CC(F)(F)C[C@H]4C#N)c3c2)CC1 | 8.8
CS(=O)(=O)c1cccc(-c2ccc3nccc(C(=O)NCC(=O)N4CCC[C@H]4C#N)c3c2)c1 | 9
CC(C)(C)OC(=O)N1CC[N+]([O-])(CCCOc2ccc3c(c2)c(C(=O)NCC(=O)N2CC(F)(F)C[C@H]2C#N)cc[n+]3[O-])CC1 | 8.6
CC(C)(C)OC(=O)N1CCN(CCCOc2ccc3c(c2)c(C(=O)NCC(=O)N2CC(F)(F)C[C@H]2C#N)cc[n+]3[O-])CC1 | 8.6
CS(=O)(=O)c1ccc(-c2ccc3c(C(=O)NCC(=O)N4CCC[C@H]4C#N)ccnc3c2)cc1 | 8.8
CS(=O)(=O)c1ccc(-c2ccc3nccc(C(=O)NCC(=O)N4CC(F)(F)C[C@H]4C#N)c3c2)cc1 | 9.2
N#C[C@@H]1CC(F)(F)CN1C(=O)CNC(=O)c1ccnc2ccc(OCCCN3CCN(C(=O)CN4CCN5CCN6CCN(CC4)CC(=O)[O][Eu]([O]C(=O)C6)[O]C(=O)C5)CC3)cc12 | 9.3
CC(C)(C)c1nnc(C(=O)[C@@H]2CCCN2C(=O)CNC(=O)c2ccnc3ccccc23)o1 | 8.4
N#C[C@@H]1CCCN1C(=O)CNC(=O)c1ccnc2cc(-c3cccc(C(=O)O)c3)ccc12 | 8.8
CC(C)(C)OC(=O)N1CC[N+]([O-])(CCCOc2ccc3nccc(C(=O)NCC(=O)N4CC(F)(F)C[C@H]4C#N)c3c2)CC1 | 9
N#C[C@@H]1CC(F)(F)CN1C(=O)CNC(=O)c1ccnc2ccc(OCCCN3CCN(C(=O)CN4CCN5CCN6CCN(CC4)CC(=O)[O][Lu]([O]C(=O)C6)[O]C(=O)C5)CC3)cc12 | 9.3
CS(=O)(=O)c1ccc(-c2ccc3nccc(C(=O)NCC(=O)N4CCC[C@H]4C#N)c3c2)cc1 | 9.2
